Target: recombinant human PKM2 (Homo sapiens)
Construct: His (N); purchased R&D Systems
Sequence (P14618 2-531 limits assumed): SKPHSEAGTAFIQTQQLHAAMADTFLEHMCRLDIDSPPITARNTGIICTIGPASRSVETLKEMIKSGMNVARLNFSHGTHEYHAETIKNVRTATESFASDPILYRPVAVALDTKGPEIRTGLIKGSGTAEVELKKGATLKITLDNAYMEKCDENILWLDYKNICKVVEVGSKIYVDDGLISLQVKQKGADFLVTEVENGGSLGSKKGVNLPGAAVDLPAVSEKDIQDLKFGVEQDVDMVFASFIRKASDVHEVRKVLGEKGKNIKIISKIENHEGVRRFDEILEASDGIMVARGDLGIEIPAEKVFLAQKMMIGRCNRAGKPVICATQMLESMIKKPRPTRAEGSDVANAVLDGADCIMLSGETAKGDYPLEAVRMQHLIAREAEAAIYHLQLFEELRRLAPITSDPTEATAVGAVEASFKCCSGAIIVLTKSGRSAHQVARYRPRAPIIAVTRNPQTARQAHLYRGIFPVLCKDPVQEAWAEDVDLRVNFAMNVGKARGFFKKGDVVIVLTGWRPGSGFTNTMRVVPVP
Assay: Human PKM2 activation assay (Kinase-Glo Plus luminescent detection of generated ATP)
Type: biochemical
Details: recombinant human PKM2 activation; 4-parameter logistic fit; read-out: hPKM2 EC50
Hi! Could you tag entries with EC50 below 40 nM as y, and those at or above as n? Much appreciated.

Take a look at these entries with their results.
O=c1c2ccc(S(=O)(=O)c3cnc4c(c3)OCCO4)cc2cnn1Cc1cc[nH]n1 [Example 234]: n
O=c1c2ccc(S(=O)(=O)c3ccccc3)cc2cnn1Cc1cc2n(n1)CCO2 [Example 27]: n
COc1ccc(S(=O)(=O)c2ccc3c(=O)n(Cc4cccnc4O)ncc3c2)cc1 [Example 56]: n

stdin: Is it true that EC50 reported for COc1ccc(Cn2ncc3cc(S(=O)(=O)c4ccc5c(c4)CCO5)ccc3c2=O)cn1 [Example 126] is less than 40 nM?
stdout: y

stdin: What about this compound? COC(C)c1nc(S(=O)(=O)c2ccc3c(=O)n(Cc4cc5n(n4)CCO5)ncc3c2)cs1 (centres unmarked) [Example 356]
stdout: n

stdin: What about this compound? O=c1c2ccc(S(=O)(=O)c3ccccc3)cc2cnn1Cc1ccc2cn[nH]c2c1 [Example 58]
stdout: n

stdin: What about this compound? CNC(=O)c1occc1Cn1ncc2cc(S(=O)(=O)c3ccc(OC)cc3)ccc2c1=O [Example 17]
stdout: n

stdin: What about this compound? O=c1c2ccc(S(=O)(=O)c3ccc4c(c3)NCCO4)cc2cnn1Cc1cc[nH]n1 [Example 221]
stdout: n

stdin: What about this compound? Cc1cc(Cn2ncc3cc(S(=O)(=O)c4ccc5c(c4)CCO5)ccc3c2=O)n[nH]1 [Example 209]
stdout: y

stdin: What about this compound? O=c1c2ccc(S(=O)(=O)c3cnn(CCO)c3)cc2cnn1Cc1cc[nH]n1 [Example 241]
stdout: n

stdin: What about this compound? O=c1c2ccc(S(=O)(=O)c3cn[nH]c3)cc2cnn1Cc1ccc2c(n1)CCO2 [Example 253]
stdout: y

stdin: What about this compound? Cc1cc2nc(Cn3ncc4cc(S(=O)(=O)c5cn[nH]c5)ccc4c3=O)ccc2o1 [Example 345]
stdout: y

stdin: What about this compound? COc1ccc([S@](=N)(=O)c2ccc3c(=O)n(Cc4ccc(OC)nc4)ncc3c2)cc1 (single isomer, unassigned) [Example 192]
stdout: n

stdin: What about this compound? COc1ccc(S(=O)(=O)c2ccc3c(=O)n(Cc4ccn(CCO)n4)ncc3c2)cn1 [Example 285]
stdout: n

stdin: What about this compound? Cc1ncc(Cn2ncc3cc(S(=O)(=O)c4ccccc4)ccc3c2=O)s1 [Example 30]
stdout: n

stdin: What about this compound? NC(=O)c1ncccc1Cn1ncc2cc(S(=O)(=O)c3ccccc3)ccc2c1=O [Example 9]
stdout: n

----------
Catalogue of EC50 values
Target: recombinant human PKM2 (Homo sapiens)
Construct: His (N); purchased R&D Systems
Experiment: Human PKM2 activation assay (Kinase-Glo Plus luminescent detection of generated ATP)
Format: biochemical
Settings: recombinant human PKM2 activation; 4-parameter logistic fit; read-out: hPKM2 EC50
Value expressed in µM; do not type the unit.

The following molecules have reported results that may help.
O=c1c2ccc(S(=O)(=O)c3cc4c(cn3)OCC4)cc2cnn1Cc1cc[nH]n1 [Example 258]: 0.0888
COc1ccc(Cn2ncc3cc(S(=O)(=O)c4cnn(CCO)c4)ccc3c2=O)cn1 [Example 271]: 0.0545
CC1Cc2cc(Cn3ncc4cc(S(=O)(=O)c5ccccc5)ccc4c3=O)ccc2O1 (centres unmarked) [Example 64]: 0.045
COc1ccc(Cn2ncc3cc(S(=O)(=O)c4cnc(C(F)F)s4)ccc3c2=O)cn1 [Example 173]: 0.152
Cn1ccc(S(=O)(=O)c2ccc3c(=O)n(Cc4cccc(OC(F)F)c4)ncc3c2)n1 [Example 198]: 0.1
COc1ccc(C(C)n2ncc3cc(S(=O)(=O)c4ccccc4)ccc3c2=O)cn1 (centres unmarked) [Example 74]: 0.218
COc1ccc(Cn2ncc3cc(S(=O)(=O)c4cccc(C)n4)ccc3c2=O)cn1 [Example 169]: 0.185

Next:
stdin: Quick check: EC50 of Cc1ccc(F)c(Cn2ncc3cc(S(=O)(=O)c4cc[nH]n4)ccc3c2=O)n1 [Example 301] ?
stdout: 0.131
